Listing of recorded phosphorylation enrichment by entry.
Target: Fes (UniProt P07332)
Sequence (P07332 whole entry, looked up): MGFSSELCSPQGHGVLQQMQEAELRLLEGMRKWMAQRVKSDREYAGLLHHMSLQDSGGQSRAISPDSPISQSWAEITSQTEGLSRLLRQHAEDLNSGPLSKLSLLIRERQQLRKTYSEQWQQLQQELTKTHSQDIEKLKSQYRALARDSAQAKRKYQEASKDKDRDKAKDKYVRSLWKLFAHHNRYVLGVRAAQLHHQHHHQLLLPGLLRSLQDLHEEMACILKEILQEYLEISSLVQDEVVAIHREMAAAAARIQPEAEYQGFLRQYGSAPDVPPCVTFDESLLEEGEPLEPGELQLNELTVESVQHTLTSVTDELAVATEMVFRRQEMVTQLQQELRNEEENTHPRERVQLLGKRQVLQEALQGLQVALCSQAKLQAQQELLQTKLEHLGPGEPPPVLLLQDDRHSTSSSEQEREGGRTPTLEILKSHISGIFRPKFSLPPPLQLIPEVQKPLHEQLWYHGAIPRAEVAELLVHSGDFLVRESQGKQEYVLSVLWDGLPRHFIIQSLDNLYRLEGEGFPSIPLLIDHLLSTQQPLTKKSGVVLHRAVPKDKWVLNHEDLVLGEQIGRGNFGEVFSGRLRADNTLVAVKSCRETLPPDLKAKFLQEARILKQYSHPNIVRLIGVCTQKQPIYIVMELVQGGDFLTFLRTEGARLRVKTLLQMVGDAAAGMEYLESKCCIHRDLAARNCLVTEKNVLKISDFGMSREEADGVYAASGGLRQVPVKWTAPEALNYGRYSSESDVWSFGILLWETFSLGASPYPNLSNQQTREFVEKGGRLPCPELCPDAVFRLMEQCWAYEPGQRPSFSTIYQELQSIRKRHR
Test: phosphorylation enrichment, bacterial display (enrichment ratio); higher = better substrate or ligand; peptides without Tyr show the background

Example entries begin here.
INSERT INTO results (residue_codes, readout_name, experimental_value) VALUES
  ('LLEGKYEWQEV [CDKN1B_Y74_P69L]', 'phosphorylation enrichment', 2.74),
  ('SDMGQYQCLVF [AXL_Y115_T112M]', 'phosphorylation enrichment', 1.22),
  ('RVEDACILTCN [CCT6A_Y229_Y229C]', 'phosphorylation enrichment', 1.12),
  ('EIHTQYEAMAS [GFAP_Y242_R239H]', 'phosphorylation enrichment', 0.753),
  ('ESDGAYIQRMQ [CCDC137_Y125_H127Q]', 'phosphorylation enrichment', 0.772);

Measured phosphorylation enrichment of YAADYYKLLGN [ROR2_Y646] : 0.993

Measured phosphorylation enrichment of KINKMYSDRAM : 0.624

Measured phosphorylation enrichment of LDPDSYNKFEN [FOXC1_Y159_M161K] : 1.69

Measured phosphorylation enrichment of KKGIVYIFNGR [ITGAV_Y404] : 0.957

###

Listing of recorded phosphorylation enrichment by entry.
Molecular target: EPHB2 (UniProt P29323)
Sequence (P29323 whole entry, looked up): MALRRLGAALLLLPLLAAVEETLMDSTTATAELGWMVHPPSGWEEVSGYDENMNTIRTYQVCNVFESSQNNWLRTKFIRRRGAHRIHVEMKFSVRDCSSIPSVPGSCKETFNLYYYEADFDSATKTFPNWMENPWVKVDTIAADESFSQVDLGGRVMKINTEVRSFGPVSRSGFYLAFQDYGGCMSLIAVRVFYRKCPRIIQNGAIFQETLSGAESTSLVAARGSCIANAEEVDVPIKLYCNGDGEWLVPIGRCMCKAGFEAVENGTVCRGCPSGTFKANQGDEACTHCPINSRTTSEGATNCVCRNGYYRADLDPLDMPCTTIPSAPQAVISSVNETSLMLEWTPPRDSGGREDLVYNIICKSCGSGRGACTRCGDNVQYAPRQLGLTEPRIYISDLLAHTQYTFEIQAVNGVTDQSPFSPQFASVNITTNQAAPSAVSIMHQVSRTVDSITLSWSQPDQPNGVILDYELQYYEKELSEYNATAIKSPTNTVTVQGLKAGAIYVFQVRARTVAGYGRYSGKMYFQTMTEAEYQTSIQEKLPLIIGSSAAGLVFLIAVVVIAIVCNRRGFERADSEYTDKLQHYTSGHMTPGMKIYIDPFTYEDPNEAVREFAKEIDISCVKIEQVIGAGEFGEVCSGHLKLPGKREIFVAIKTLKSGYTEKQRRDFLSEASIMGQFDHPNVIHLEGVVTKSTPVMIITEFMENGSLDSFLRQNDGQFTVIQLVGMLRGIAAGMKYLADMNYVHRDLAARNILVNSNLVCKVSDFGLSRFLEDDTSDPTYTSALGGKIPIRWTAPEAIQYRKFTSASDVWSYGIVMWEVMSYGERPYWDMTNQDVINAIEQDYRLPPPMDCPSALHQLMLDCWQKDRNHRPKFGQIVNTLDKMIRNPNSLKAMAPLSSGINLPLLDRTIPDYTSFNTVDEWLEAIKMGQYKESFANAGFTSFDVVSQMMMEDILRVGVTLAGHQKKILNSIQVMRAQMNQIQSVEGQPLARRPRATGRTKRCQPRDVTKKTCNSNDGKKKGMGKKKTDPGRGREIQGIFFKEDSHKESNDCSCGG
Assay: phosphorylation enrichment, bacterial display (enrichment ratio); higher = better substrate or ligand; peptides without Tyr show the background
Just the number, please, no unit after it.

INSERT INTO measurements (residue_codes, readout_name, experimental_value) VALUES
  ('KLIETYFSKNF [PLP1_Y50_YF]', 'phosphorylation enrichment', 0.452);

Measured phosphorylation enrichment of PIDLYYLMDLS [ITGB2_Y131] : 12.5

Measured phosphorylation enrichment of SVVVPFEPPEV [TP53_Y220_Y220F] : 0.628

Measured phosphorylation enrichment of NTGVFYDLFGG [PTPN11_Y63_D61V_YF] : 0.986

Measured phosphorylation enrichment of LTERGYSFVTT [ACTA1_Y200] : 0.95

Measured phosphorylation enrichment of SLMGCYNLTFM [HS6ST3_Y323_V320M] : 0.655

Measured phosphorylation enrichment of LERFIYNRQEF [HLA-DPB1_Y59_E62Q_YF] : 0.551

###

Target: c-Src SH2;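 also: peptide library displayed on the E. coli surface as eCPX fusions, selected cells deep-sequenced, score is each peptide's frequency after selection divided by its frequency in the input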
Experiment: SH2 binding enrichment of the phosphorylated peptide, bacterial display (enrichment ratio); higher = better substrate or ligand; peptides without Tyr show the background
Listing of recorded SH2 binding enrichment by entry.
Just the number, please, no unit after it.

INSERT INTO assay_data (residue_codes, test_target, experimental_value) VALUES
  ('RQNNSYTCYTA [SLC20A2_Y386_R382Q]', 'c-Src SH2', 0.664),
  ('DEEPPDRGPFC [SASH1_Y551_Y551D]', 'c-Src SH2', 0.61),
  ('CPTIHYNYMCN [TP53_Y234_T230P]', 'c-Src SH2', 8.28),
  ('PGNIVYSSLCG [BCOR_Y90]', 'c-Src SH2', 0.579),
  ('QKPLDYYRVNL [GALE_Y104]', 'c-Src SH2', 0.422);

Measured SH2 binding enrichment of LGRGKSSEVFE [CSNK2A1_Y50_Y50S] : 0.337

Measured SH2 binding enrichment of KSMSVYCTPNK [ATP2A2_Y497] : 0.948

Measured SH2 binding enrichment of RSSGGYEPRGR [FUS_Y239] : 0.488

Measured SH2 binding enrichment of SIYKDYYRYNF [PLA2G2D_Y85] : 0.908

Measured SH2 binding enrichment of PVEAAYQKVVA [HBB_Y131_Q128E] : 0.964

Measured SH2 binding enrichment of HEDPMYDIIRD [RP9_Y142] : 1.92
